# test_system: PPARγ-RXRα heterodimer (Homo sapiens, UniProt P37231)
# Sequence (P37231 whole entry): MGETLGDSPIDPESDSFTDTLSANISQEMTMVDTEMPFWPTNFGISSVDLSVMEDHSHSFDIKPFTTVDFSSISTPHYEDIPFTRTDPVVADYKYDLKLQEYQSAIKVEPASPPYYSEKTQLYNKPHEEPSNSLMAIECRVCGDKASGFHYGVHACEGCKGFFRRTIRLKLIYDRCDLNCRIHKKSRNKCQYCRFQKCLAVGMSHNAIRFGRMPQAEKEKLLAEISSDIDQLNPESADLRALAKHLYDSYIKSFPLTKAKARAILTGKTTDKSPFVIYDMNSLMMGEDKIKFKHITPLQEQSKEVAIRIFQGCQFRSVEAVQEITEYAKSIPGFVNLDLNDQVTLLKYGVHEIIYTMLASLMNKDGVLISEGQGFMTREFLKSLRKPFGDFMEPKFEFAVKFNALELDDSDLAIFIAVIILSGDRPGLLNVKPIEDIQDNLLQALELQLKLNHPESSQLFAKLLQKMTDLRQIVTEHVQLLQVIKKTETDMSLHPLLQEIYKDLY
# Sequence (P19793 whole entry partner): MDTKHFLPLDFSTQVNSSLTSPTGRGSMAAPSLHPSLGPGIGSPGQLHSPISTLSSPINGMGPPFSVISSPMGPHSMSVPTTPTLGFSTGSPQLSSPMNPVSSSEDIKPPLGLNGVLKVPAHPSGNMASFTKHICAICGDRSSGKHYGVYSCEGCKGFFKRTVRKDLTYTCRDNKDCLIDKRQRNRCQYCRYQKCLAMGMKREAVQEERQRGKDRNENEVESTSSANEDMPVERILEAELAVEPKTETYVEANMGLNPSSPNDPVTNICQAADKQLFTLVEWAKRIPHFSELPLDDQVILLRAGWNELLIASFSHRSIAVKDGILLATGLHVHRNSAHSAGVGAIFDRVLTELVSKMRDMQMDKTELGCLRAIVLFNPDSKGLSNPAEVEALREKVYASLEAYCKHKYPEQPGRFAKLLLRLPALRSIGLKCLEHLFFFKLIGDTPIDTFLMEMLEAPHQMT
# method_description: PPARγ-RXRα heterodimer ligand activity (luciferase reporter assay in PPARγ:RXRα:4ERPP/CHO-K1 cells)
# condition: incubated one day with test compound, luciferase induction rate, compound concentration showing 50% of the maximum value of induction rate
Threshold check on EC50: strictly below 40 nM is 1.0; on or above 40 nM is 0.0.

Please review the following examples before continuing.
Cc1nn(C)c(-n2ccc3cc(Cl)ccc32)c1/C=C1\SC(=O)NC1=O :: 0.0
Cc1nn(C)c(-n2ccc3cc(Cl)ccc32)c1CCS(=O)(=O)NC(=O)OCC1CC1 :: 0.0
Cc1nn(C)c(-n2ccc3cc(Cl)ccc32)c1/C=C/C(=O)NS(=O)(=O)c1ccco1 :: 0.0
CCCCCNS(=O)(=O)NC(=O)/C=C/c1c(C)nn(C)c1-n1ccc2cc(Cl)ccc21 :: 1.0
CCCCCS(=O)(=O)NC(=O)OCCc1c(C)nn(C)c1-n1ccc2cc(Cl)ccc21 :: 1.0

Here is the next item to consider.
Decide: EC50 of CCCCCS(=O)(=O)NC(=O)/C=C/c1c(C)nn(C)c1-c1csc2ccccc12 strictly below 40 nM?
1.0

Ref: patent US20080194617A1
